Test system: db/db mice
Experiment: Measuring blood plasma glucose concentration in db/db mice (hypoglycemic effect)
Format: in vivo
Design: key: ++: compounds exhibiting statistically significant hypoglycemic effect at a dose of 10 mg/kg or less; +: compounds exhibiting not significant but obvious hypoglycemic effect at a dose of 10 mg/kg
Details: db/db mice fasted 4 h, oral administration, plasma glucose 1 and 3 hours after administration, dose 10 mg/kg or less, Dunnett test vs solvent
Experimental: 2. Exemplary Test (2) Method for Measuring Blood Plasma Glucose Concentration Using db/db mice representing an obesity type of diabetic model were used to examine the effect of compound (1) of the present invention on glucose concentrations in plasma. Plasma glucose concentrations of the db/db mice (9-18 weeks old) were measured, and the mice were divided into groups each of 5 or 8 mice such that there would be no difference in the average value of plasma glucose concentrations. […]
MEASURED ATTRIBUTE: vivo (hypoglycemic effect in db/db mice)

                           molecular_string  system_tested                        measured_attribute  result
0  O=C(NN1CCOCC1)c1cccc(CNC(=O)c2cc(NC(=O)c3cc(F)c(F)cc3Cl)[nH]n2)c1     db/db mice  vivo (hypoglycemic effect in db/db mice)       +
1  CCOC(=O)CN(C(=O)c1cc(NC(=O)c2cc(F)c(F)cc2Cl)[nH]n1)c1ccccc1     db/db mice  vivo (hypoglycemic effect in db/db mice)       +
2  CCCN(Cc1ccc(OC)nc1)C(=O)c1cc(NC(=O)c2cc(F)c(F)cc2Cl)[nH]n1     db/db mice  vivo (hypoglycemic effect in db/db mice)      ++
3  O=C(NCc1ccc(-n2cccn2)nc1)c1cc(NC(=O)c2cc(F)c(F)cc2Cl)[nH]n1     db/db mice  vivo (hypoglycemic effect in db/db mice)       +
4  Cl.O=C(NCc1ccccn1)c1cc(NC(=O)c2cc(F)c(F)cc2Cl)[nH]n1     db/db mice  vivo (hypoglycemic effect in db/db mice)       +
5  O=C(NCc1ccc(Cl)nc1)c1cc(NC(=O)c2cc(F)c(F)cc2Cl)[nH]n1     db/db mice  vivo (hypoglycemic effect in db/db mice)       +
6  CN(C(=O)c1cc(NC(=O)c2cc(F)c(F)cc2Cl)[nH]n1)c1ccccc1     db/db mice  vivo (hypoglycemic effect in db/db mice)       +
7  COc1ccc(CNC(=O)c2cc(NC(=O)c3cc(F)c(F)cc3Cl)[nH]n2)cn1.CS(=O)(=O)O     db/db mice  vivo (hypoglycemic effect in db/db mice)       +

Attention now turns to another entry.
[ask] Quick one: give measured vivo (hypoglycemic effect in db/db mice) for `Cc1nc(C)c(CNC(=O)c2cc(NC(=O)c3cc(F)c(F)cc3Cl)[nH]n2)s1.Cl`
[reply] +
